- subjectOfTest: UPR counterscreen luciferase reporter, luminescence
- methodDescription: luciferase reporter activation, UPR counterscreen line – cell-based, luminescence, counter-screen for adaptive UPR activator project, dose response (AID 489027)
Active and inactive are the calls of the source. How the calls were made is not given here.
Mark one answer only. Choices: class 1 for active, class 0 for inactive

O=[N+]([O-])c1cccc(/C=C/c2ccc3cccc(O)c3n2)c1
class 0
COc1cc([N+](=O)[O-])cc(/C=N/NC(=O)c2ccc(NC(=O)c3ccc(C)cc3)cc2)c1O
class 0
CCc1ccc2[nH]c3nc(SCc4nnc(-c5ccc(C)cc5)o4)nnc3c2c1
class 0
CCOC(=O)C1=C(C)N=c2s/c(=C3/C(=O)Nc4ccccc43)c(=O)n2C1c1ccc(C)cc1 (centres undefined)
class 0
C=CCN=C1S/C(=C/c2cccc([N+](=O)[O-])c2)C(=O)N1CC=C
class 0
COc1cc(OC)cc(C(=O)Nc2ccc3nc4n(c(=O)c3c2)CCCCC4)c1
class 0
CN(C)C(=O)CCc1ccc2c3c([nH]c2c1)[C@]1(CCc2ccccc2)[C@@H](C(=O)N2CCCCC2)C[C@H](CC(=O)NCCC2=CCCCC2)C(=O)N1CC3
class 0
O=C(Oc1ccc(F)cc1C(=O)/C=C/c1cccs1)c1cccc([N+](=O)[O-])c1
class 0

GET /call?item= COCc1cc(C)nc(OCC(=O)N/N=C/c2ccc(-c3cc([N+](=O)[O-])ccc3Cl)o2)c1C#N returns the recorded outcome of this test. class 1

Reference source: PubChem BioAssay AID489027
